Target: T1, NativeRPtag(large)_with_Tags_and_Cys (Thermoanaerobacter tengcongensis)
T1 chain: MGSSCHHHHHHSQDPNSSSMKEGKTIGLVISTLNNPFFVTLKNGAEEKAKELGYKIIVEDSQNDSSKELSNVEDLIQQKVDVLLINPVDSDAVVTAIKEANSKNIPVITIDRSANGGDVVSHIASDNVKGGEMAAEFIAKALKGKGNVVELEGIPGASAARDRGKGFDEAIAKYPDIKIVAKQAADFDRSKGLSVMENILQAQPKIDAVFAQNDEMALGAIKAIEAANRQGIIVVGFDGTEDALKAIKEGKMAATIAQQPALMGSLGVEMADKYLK
Assay: fluorescence anisotropy; glycerol (20%)
pKd: −log10 of the molar value.
measured-quantity: pKd

>>> df
                                     binder  measured_quantity  test_value
0  PAELKLITK (modifications not checked) [RPtag(small) Nd8, Cd4]                pKd        7.57
